System: NCI-H23 lung
assay protocol: NCI tumour cell line growth inhibition, 48 h
value type: TGI (µM)
One number for each entry, in µM.

> print(dat)
                                   compound  unit.descriptor  readout.value
1  CCC1CN2CCc3cc(OC)c(OC)cc3C2CC1CC1c2cc(OC)c(OC)cc2CCN1C(=O)C(Cc1c[nH]c2ccccc12)NC(=O)OC(C)(C)C (stereo unspecified)               µM           16.6
2  O=C(CSc1nc2ccc([N+](=O)[O-])cc2[nH]1)Nc1ccc([N+](=O)[O-])cc1               µM           9.51
3  Cc1ccc(S(=O)OC2c3ccccc3Cc3ccccc32)cc1 (stereo unspecified)               µM           33.8

Would you mind giving TGI for every compound in the list below?
1. NCCSC1(O)C(=O)c2ccccc2-c2ccccc21 (stereo unspecified)
2. CCCCN(CCCC)C1(c2cc3ccccc3s2)CCCCC1

Solution:
1. 3.75
2. 29.5
